System: p-ERK1/2 (Thr202/Tyr204) in NCI-H1792 cells (KRAS p.G12C)
Method summary: cells
Condition description: Homo sapiens, NCI-H1792, 2 h, read-out: p-ERK IC50 (nM)
Experimental endpoint: IC50 (nM)

> print(dat)
                                   compound  experimental.endpoint  measured
1  C=CC(=O)N1CCN(c2c(C#N)c(=O)n(-c3c(C)ccnc3C(C)C)c3nc(-c4c(N)c(F)c(F)c(F)c4F)c(Cl)cc23)CC1 [Glecirasib]                   IC50      7.16

###

Method summary: AUC in plasma and brain following a single oral dose
Assay type: in vivo, Rat (Sprague-Dawley)
Condition description: brain, Rat (Sprague-Dawley), Male, 300 mg/kg, single dose, read-out: Brain/Plasma AUC0-24h ratio (%)
Experimental endpoint: Kp

> print(dat)
                                smiles.data  experimental.endpoint  measured
1  C=CC(=O)N1CCN(c2c(C#N)c(=O)n(-c3c(C)ccnc3C(C)C)c3nc(-c4c(N)c(F)c(F)c(F)c4F)c(Cl)cc23)CC1                     Kp    0.0904

###

Method summary: AUC in plasma and brain following a single oral dose
Type: in vivo, Mouse (NOD SCID)
Condition description: plasma, Mouse (NOD SCID), Female, 100 mg/kg, single dose, read-out: AUC0-24h Plasma
Experimental endpoint: AUC(0-t)

> print(dat)
                                smiles.data  experimental.endpoint       measured
1  C=CC(=O)N1CCN(c2c(C#N)c(=O)n(-c3c(C)ccnc3C(C)C)c3nc(-c4c(N)c(F)c(F)c(F)c4F)c(Cl)cc23)CC1               AUC(0-t)  25700 ng·h/mL

###

Test system: Ba/F3 cells carrying HRAS p.G12C
Method summary: Ba/F3-engineered cell line viability
Assay type: cell-based
Condition description: Mus musculus, BaF3; Ba/F3 cell line carrying HRAS p.G12C; read-out: cell viability inhibitory IC50
Experimental endpoint: IC50 (nM)

> print(dat)
                                smiles.data  measured
1  C=CC(=O)N1CCN(c2c(C#N)c(=O)n(-c3c(C)ccnc3C(C)C)c3nc(-c4c(N)c(F)c(F)c(F)c4F)c(Cl)cc23)CC1      5.32

###

Catalogue of IC50 readings, one per entry.
Target under test: GppNp-bound NRAS WT (Homo sapiens)
Construct: His-tagged NRAS WT (aa 1–172); made in house; host or cells: Escherichia coli
Sequence (P01111 1-172): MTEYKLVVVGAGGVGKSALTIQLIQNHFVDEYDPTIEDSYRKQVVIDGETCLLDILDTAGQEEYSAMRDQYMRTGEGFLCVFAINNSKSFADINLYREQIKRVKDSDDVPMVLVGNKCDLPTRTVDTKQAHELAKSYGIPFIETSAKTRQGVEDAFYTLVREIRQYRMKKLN
Method summary: GppNp-loaded RAS and cRAF interaction assay (HTRF)
Type: biochemical
Experimental endpoint: IC50

> print(dat)
                                smiles.data  measured
1  C=C(F)C(=O)N1CCN(c2nc(OC[C@@H]3CCCN3C)nc3c2CCN(c2cccc4cccc(Cl)c24)C3)C[C@@H]1CC#N   > 10 µM
2  C=CC(=O)N1CCN(c2c(C#N)c(=O)n(-c3c(C)ccnc3C(C)C)c3nc(-c4c(N)c(F)c(F)c(F)c4F)c(Cl)cc23)CC1   > 10 µM

###

Method summary: AUC in plasma and brain following a single oral dose
Format: in vivo, Mouse (NOD SCID)
Condition description: NOD SCID, mouse, brain, 100 mg/kg, read-out: distribution in the brain, % of AUC in plasma
Experimental endpoint: Kp

> print(dat)
                                smiles.data  measured
1  C=CC(=O)N1CCN(c2c(C#N)c(=O)n(-c3c(C)ccnc3C(C)C)c3nc(-c4c(N)c(F)c(F)c(F)c4F)c(Cl)cc23)CC1      0.04

###

Method summary: AUC in plasma and brain following a single oral dose
Type: in vivo, Rat (Sprague-Dawley)
Condition description: plasma, Rat (Sprague-Dawley), Male, 300 mg/kg, single dose, read-out: AUC0-24h Plasma
Experimental endpoint: AUC(0-t)

> print(dat)
                                smiles.data  experimental.endpoint       measured
1  C=CC(=O)N1CCN(c2c(C#N)c(=O)n(-c3c(C)ccnc3C(C)C)c3nc(-c4c(N)c(F)c(F)c(F)c4F)c(Cl)cc23)CC1               AUC(0-t)  18600 ng·h/mL

###

Target under test: Calcium channel Cav1.2 (Homo sapiens, UniProt Q13936)
Sequence (Q13936 whole entry): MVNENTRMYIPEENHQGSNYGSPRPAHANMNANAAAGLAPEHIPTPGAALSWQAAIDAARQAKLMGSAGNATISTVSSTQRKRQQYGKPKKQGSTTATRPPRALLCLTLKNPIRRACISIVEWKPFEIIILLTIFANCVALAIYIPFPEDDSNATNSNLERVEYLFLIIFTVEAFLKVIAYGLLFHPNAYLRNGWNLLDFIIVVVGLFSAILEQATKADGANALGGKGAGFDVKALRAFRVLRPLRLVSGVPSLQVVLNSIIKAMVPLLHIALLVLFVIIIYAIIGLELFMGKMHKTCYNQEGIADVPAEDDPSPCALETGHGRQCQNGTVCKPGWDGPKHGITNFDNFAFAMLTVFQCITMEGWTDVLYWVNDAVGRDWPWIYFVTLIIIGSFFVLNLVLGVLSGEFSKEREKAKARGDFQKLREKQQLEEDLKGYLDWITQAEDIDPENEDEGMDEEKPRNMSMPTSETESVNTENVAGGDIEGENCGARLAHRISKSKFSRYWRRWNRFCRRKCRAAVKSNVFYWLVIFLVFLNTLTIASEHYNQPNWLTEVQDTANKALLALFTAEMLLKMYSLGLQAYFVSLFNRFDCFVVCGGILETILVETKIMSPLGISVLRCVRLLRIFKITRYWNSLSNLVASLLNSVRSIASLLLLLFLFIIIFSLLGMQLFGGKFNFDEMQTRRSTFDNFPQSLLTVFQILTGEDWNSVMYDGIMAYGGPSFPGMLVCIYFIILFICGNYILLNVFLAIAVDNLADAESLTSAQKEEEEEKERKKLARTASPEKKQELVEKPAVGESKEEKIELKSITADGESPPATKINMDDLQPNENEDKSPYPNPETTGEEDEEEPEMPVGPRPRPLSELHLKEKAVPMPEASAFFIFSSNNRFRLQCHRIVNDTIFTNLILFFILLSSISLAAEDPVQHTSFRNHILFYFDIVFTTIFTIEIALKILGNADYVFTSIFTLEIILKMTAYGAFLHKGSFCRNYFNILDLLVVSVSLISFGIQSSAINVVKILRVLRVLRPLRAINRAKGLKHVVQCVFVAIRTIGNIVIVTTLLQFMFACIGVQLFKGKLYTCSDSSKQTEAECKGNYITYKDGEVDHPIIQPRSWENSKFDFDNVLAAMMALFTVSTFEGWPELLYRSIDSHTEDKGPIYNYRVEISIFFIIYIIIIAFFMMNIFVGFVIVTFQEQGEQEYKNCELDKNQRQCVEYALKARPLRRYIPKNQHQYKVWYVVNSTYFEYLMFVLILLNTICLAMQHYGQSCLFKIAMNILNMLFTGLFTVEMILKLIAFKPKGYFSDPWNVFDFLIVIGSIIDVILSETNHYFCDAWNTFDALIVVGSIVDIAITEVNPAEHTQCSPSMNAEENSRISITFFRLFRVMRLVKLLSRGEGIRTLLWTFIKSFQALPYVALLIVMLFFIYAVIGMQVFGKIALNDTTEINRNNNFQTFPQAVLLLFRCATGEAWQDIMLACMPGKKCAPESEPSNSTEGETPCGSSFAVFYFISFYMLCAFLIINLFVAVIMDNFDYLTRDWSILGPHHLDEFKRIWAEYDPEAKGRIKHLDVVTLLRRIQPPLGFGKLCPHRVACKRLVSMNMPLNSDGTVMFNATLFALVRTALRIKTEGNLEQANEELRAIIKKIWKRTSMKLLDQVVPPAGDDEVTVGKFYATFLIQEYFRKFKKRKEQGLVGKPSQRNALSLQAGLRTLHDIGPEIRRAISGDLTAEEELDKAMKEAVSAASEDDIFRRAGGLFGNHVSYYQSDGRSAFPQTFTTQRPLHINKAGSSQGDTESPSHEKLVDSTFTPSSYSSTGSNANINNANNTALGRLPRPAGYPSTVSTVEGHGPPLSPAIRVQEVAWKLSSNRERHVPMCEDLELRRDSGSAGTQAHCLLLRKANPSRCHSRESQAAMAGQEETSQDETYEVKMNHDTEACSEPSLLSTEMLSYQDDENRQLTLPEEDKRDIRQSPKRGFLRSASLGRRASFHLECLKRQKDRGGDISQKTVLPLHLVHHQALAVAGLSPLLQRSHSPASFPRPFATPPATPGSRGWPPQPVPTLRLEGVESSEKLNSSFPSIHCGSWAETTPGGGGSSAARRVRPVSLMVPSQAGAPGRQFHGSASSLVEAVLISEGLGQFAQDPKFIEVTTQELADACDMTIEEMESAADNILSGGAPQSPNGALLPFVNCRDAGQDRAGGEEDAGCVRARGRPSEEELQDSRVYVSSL
Sequence (Q08289 whole entry partner): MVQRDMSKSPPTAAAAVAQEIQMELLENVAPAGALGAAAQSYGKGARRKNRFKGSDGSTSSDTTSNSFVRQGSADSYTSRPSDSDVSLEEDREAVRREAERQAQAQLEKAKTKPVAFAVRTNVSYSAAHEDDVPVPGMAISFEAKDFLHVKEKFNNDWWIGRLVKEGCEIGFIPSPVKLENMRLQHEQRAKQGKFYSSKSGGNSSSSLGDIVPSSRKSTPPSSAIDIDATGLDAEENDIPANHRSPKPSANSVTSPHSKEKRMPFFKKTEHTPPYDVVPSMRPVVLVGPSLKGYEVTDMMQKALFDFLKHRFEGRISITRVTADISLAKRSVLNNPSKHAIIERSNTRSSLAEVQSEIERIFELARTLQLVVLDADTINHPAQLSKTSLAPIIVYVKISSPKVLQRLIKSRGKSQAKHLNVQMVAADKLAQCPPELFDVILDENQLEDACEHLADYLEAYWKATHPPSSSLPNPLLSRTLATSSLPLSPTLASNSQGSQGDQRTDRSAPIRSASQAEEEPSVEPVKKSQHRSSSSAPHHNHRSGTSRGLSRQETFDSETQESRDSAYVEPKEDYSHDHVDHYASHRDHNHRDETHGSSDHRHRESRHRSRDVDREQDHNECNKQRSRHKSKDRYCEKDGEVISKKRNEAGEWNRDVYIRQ
Sequence (P54289 25-956 partner limits assumed): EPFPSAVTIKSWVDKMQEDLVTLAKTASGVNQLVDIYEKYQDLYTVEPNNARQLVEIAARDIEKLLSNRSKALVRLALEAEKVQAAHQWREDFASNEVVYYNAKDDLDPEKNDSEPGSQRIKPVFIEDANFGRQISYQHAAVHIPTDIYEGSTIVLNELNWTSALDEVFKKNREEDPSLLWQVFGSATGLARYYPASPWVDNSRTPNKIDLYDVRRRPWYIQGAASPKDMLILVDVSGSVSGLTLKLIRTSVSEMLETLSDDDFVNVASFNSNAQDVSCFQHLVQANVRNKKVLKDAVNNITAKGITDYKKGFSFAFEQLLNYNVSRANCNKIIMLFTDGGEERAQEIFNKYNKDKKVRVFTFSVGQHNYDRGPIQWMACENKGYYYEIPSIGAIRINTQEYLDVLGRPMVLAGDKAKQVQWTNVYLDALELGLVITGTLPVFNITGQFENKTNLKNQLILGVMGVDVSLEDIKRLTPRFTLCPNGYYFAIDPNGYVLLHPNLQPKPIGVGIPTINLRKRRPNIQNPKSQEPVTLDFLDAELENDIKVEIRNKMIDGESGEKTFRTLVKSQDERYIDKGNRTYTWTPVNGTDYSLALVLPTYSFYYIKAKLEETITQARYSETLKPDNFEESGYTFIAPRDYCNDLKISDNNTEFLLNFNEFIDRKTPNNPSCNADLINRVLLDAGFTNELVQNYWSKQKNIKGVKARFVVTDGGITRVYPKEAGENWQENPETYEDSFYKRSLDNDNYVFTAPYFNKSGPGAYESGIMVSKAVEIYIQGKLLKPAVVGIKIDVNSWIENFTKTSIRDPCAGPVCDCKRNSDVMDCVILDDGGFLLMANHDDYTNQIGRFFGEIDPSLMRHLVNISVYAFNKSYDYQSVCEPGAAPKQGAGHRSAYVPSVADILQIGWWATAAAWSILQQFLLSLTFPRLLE
Sequence (P54289 957-1103 partner limits assumed): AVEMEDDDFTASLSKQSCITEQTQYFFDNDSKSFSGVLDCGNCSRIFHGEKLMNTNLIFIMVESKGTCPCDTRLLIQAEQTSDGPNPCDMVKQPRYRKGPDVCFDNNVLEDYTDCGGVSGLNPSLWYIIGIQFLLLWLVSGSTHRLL
Method summary: in vitro
Experimental endpoint: inhibition at 10 µM (%)

> print(dat)
                                smiles.data  measured
1  C=CC(=O)N1CCN(c2c(C#N)c(=O)n(-c3c(C)ccnc3C(C)C)c3nc(-c4c(N)c(F)c(F)c(F)c4F)c(Cl)cc23)CC1      1.46
